Recorded pIC50 for the following molecules
target: UniProt:Q9NZJ5; test: PERK enzyme assay (HTRF); format: biochemical; settings: PERK Enzyme (500 μM ATP) IC50; at least one experimental run; read-out: PERK Activity
pIC50: −log10 of the molar value.

Here's what some known entries look like.
CN1C(=O)N(c2ccc(-c3cn(C4CC4)c4ncnc(N)c34)c(F)c2)CC1c1cc(F)ccc1F (single isomer, unassigned) [Example 146]    > 7.00
Cn1cc(-c2ccc(N3CC(c4cc(F)cc(F)c4)CC3=O)cc2F)c2c(N)ncnc21 (stereo not shown)    6.00 to 7.00
CN1C(=O)N(c2ccc(-c3cn(C4CC4)c4ncnc(N)c34)c(F)c2)CC1c1cc(F)c(F)cc1F (stereo not shown) [Example 157]    > 7.00

Now look at this one.
Record summary for CN1C(=O)N(c2ccc(-c3cn(C4CC4)c4ncnc(N)c34)c(F)c2)CC1c1cc(F)c(F)cc1F (single isomer, unassigned) [Example 160] : reported pIC50 = > 7.00

###

biological target: PERK (Homo sapiens); assay: PERK enzyme assay (HTRF); type: biochemical; conditions: 500 μM ATP; at least one experimental run; read-out: PERK Enzyme (500 μM ATP) IC50
assay-endpoint: IC50 (nM)

Here's what some known entries look like.
CN1C(=O)N(c2ccc(-c3cn(C)c4ncnc(N)c34)c(F)c2)CC1c1ccc(F)c(F)c1 (single isomer, unassigned) [Example 115]    2.4
CN1C(=O)N(c2ccc(-c3cn(C)c4ncnc(N)c34)c(F)c2)CC1c1ccc(F)cc1F (single isomer, unassigned) [Example 46]    13.8
CN1C(=O)N(c2ccc(-c3cn(C)c4ncnc(N)c34)c(F)c2)CC1c1cc(F)cc(F)c1 (single isomer, unassigned) [Example 100]    3

[1] CN1C(=O)N(c2ccc(-c3cn(C)c4ncnc(N)c34)c(F)c2)CC1c1ccc(F)cc1 (single isomer, unassigned) [Example 59]
[2] CC(C)n1cc(-c2ccc(N3CC(c4ccc(F)cc4F)N(C)C3=O)cc2F)c2c(N)ncnc21 (centres unmarked) [Example 92]
[3] CN1C(=O)N(c2ccc(-c3cn(C4CC4)c4ncnc(N)c34)c(F)c2)CC1c1ccc(F)cc1F (single isomer, unassigned) [Example 137]
Q: Put these in order: smallest IC50 first, largest last. Note for the reader: the ranking is given by listing the labels in the order requested.
A: 1, 3, 2
(1: 3.9 nM, 3: 17.8 nM, 2: 351 nM)

###

Recorded pIC50 for the following compounds
target: PERK (Homo sapiens, UniProt Q9NZJ5); assay: PERK enzyme assay (HTRF); type: biochemical; settings: PERK Enzyme (500 μM ATP) IC50; at least one experimental run; read-out: PERK Activity
pIC50: −log10 of the molar value.

CCN1C(=O)N(c2ccc(-c3cn(C)c4ncnc(N)c34)c(F)c2)CC1c1cc(F)cc(C(F)(F)F)c1 (single isomer, unassigned) [Example 89]    6.00 to 7.00
CN1C(=O)N(c2ccc(-c3cn(C)c4ncnc(N)c34)c(F)c2)CC1c1c(F)cccc1F (stereo not drawn)    > 7.00
CN1C(=O)N(c2ccc(-c3cn(C4CC4)c4ncnc(N)c34)c(Cl)c2)CC1c1cc(F)cc(F)c1 (stereo not drawn) [Example 122]    > 7.00
CN1C(=O)N(c2ccc(-c3cn(C)c4ncnc(N)c34)c(F)c2)CC1c1ccncc1 (stereo not drawn)    < 6.00
CN1C(=O)N(c2ccc(-c3cn(C)c4ncnc(N)c34)c(F)c2)CC1c1cc(F)c(F)cc1F (stereo not drawn) [Example 156]    > 7.00
CCN1C(=O)N(c2ccc(-c3csc4ncnc(N)c34)c(F)c2)CC1c1cc(F)ccc1F (stereo not drawn)    6.00 to 7.00
CCN1C(=O)N(c2ccc(-c3cn(C)c4ncnc(N)c34)c(F)c2)CC1c1cc(F)cc(F)c1F (stereo not drawn)    6.00 to 7.00
Cc1nc(N)c2c(-c3ccc(N4CC(C5CCCCC5)N(C)C4=O)cc3F)cn(C)c2n1 (single isomer, unassigned)    6.00 to 7.00

Record summary for CCN1C(=O)N(c2ccc(-c3cn(C)c4ncnc(N)c34)c(F)c2)CC1c1cc(C2CC2)ccc1F (stereo not drawn) : reported pIC50 = 6.00 to 7.00

Record summary for CN1C(=O)N(c2ccc(-c3cn(C4CC4)c4ncnc(N)c34)c(F)c2)CC1c1cccc(Cl)c1 (single isomer, unassigned) [Example 153] : reported pIC50 = 6.00 to 7.00

Record summary for Cc1cc(N2CC(c3cc(F)cc(F)c3)CC2=O)ccc1-c1cn(C)c2ncnc(N)c12 (stereo not drawn) : reported pIC50 = 6.00 to 7.00

Record summary for Cc1c(-c2ccc(N3CC(c4ccc(F)cc4F)N(C)C3=O)cc2F)c2c(N)ncnc2n1C (stereo not drawn) : reported pIC50 = 6.00 to 7.00

Record summary for CN1C(=O)N(c2ccc(-c3cn(C)c4ncnc(N)c34)c(F)c2)CC1c1ccc(F)cc1 (stereo not drawn) [Example 68] : reported pIC50 = > 7.00

Record summary for CN1C(=O)N(c2ccc(-c3cn(C)c4ncnc(N)c34)cn2)CC1c1cc(F)ccc1F (stereo not drawn) : reported pIC50 = 6.00 to 7.00

Record summary for CN1C(=O)N(c2ccc(-c3cn(C)c4ncnc(N)c34)c(F)c2)CC1c1cc(F)cc(C(F)(F)F)c1 (stereo not drawn) : reported pIC50 = 6.00 to 7.00

###

target: PERK (Homo sapiens, UniProt Q9NZJ5); test: PERK enzyme assay (HTRF); type: biochemical; conditions: PERK Enzyme (500 μM ATP) IC50; at least one experimental run; read-out: PERK Activity
pIC50: −log10 of the molar value.
Recorded pIC50 for the following compounds

Here's what some known entries look like.
CN1C(=O)N(c2ccc(-c3cn(C)c4ncnc(N)c34)c(F)c2)CC1c1cc(F)ccc1F (single isomer, unassigned) [Example 150]    > 7.00
CC(C)n1cc(-c2ccc(N3CC(c4cc(F)ccc4F)N(C)C3=O)cc2F)c2c(N)ncnc21 (single isomer, unassigned) [Example 86]    6.00 to 7.00
CN1C(=O)N(c2ccc(-c3cn(C)c4ncnc(N)c34)c(F)c2)CC1c1ccc(F)c(Cl)c1 (centres unmarked) [Example 131]    > 7.00

Record summary for Cc1nc(N)c2c(-c3ccc(N4CC(c5ccc(F)cc5F)N(C)C4=O)cc3F)cn(C)c2n1 (single isomer, unassigned) [Example 66] : reported pIC50 = > 7.00

Record summary for CN1C(=O)N(c2ccc(-c3cn(C4CC4)c4ncnc(N)c34)c(F)c2)CC1c1ccc(F)cc1 (single isomer, unassigned) [Example 163] : reported pIC50 = > 7.00

###

Target: PERK (Homo sapiens, UniProt Q9NZJ5)
Sequence (Q9NZJ5 30-1116): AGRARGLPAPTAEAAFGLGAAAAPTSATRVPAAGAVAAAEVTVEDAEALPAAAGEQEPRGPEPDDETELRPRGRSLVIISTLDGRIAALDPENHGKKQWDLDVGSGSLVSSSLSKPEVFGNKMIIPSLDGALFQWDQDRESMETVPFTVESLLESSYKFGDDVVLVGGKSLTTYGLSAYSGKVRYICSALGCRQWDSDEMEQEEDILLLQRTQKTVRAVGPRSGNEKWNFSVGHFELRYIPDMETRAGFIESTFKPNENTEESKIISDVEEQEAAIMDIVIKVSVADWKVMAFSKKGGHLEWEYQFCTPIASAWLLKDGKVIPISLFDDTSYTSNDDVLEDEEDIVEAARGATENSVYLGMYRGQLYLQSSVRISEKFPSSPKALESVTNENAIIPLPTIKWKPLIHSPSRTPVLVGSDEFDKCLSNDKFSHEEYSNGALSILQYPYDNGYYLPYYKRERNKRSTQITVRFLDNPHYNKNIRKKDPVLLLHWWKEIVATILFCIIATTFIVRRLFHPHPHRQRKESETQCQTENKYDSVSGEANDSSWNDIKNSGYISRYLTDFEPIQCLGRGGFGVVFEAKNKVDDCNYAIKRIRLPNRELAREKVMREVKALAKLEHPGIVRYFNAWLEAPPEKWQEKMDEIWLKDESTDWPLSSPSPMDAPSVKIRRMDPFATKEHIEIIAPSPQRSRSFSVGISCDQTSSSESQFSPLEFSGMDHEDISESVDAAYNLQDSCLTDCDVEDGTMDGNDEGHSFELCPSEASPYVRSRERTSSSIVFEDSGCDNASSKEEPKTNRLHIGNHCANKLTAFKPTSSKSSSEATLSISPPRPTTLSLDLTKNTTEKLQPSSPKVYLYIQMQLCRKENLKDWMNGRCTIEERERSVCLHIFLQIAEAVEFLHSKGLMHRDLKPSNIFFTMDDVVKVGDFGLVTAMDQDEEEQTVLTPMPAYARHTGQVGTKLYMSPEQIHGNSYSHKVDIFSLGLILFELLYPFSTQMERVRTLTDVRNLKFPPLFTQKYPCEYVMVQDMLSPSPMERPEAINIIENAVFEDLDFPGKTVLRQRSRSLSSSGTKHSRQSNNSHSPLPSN
Test: PERK enzyme assay (HTRF)
Format: biochemical
Conditions: PERK Enzyme (500 μM ATP) IC50; at least one experimental run; read-out: PERK Activity
pIC50: −log10 of the molar value.
assay-endpoint: pIC50

Here's what some known entries look like.
CCN1C(=O)N(c2ccc(-c3cn(C)c4ncnc(N)c34)c(F)c2)CC1c1cc(F)ccc1F (racemic) [Example 1]    6.00 to 7.00
CC(C)CN1C(=O)N(c2ccc(-c3cn(C)c4ncnc(N)c34)c(F)c2)CC1c1cc(F)ccc1F (centres unmarked)    6.00 to 7.00
CN1C(=O)N(c2ccc(-c3cn(C)c4ncnc(N)c34)c(Cl)c2)CC1c1cc(F)cc(F)c1 (single isomer, unassigned) [Example 127]    > 7.00
Cc1nc(N)c2c(-c3ccc(N4CC(c5ccc(F)cc5)N(C)C4=O)cc3F)cn(C3CC3)c2n1 (centres unmarked) [Example 91]    > 7.00

Record summary for Cc1nc(N)c2c(-c3ccc(N4CC(c5cc(F)cc(F)c5)N(C)C4=O)cc3F)cn(C)c2n1 (single isomer, unassigned) : reported pIC50 = > 7.00
